# test: chemical genetic growth profiling, strain panel (AID 1159580);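 also: tested at 20 µM; growth read once vehicle control cultures reached saturation at 30 °C; lower values mean less growth of the strain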
# condition.summary: S. cerevisiae deletion strains, growth OD, locus YGR078C, strain PAC10
About 2,000 (36%) of roughly 5,500 compounds were called active. Inconclusive results (about 18%) are left out. Rule as the data show it: active = normalized growth mostly below about 0.91 (no sharp cut-off); inconclusive = no clear call, values can overlap the other calls; inactive = mostly above about 0.92. Some of the results follow.
Valid outcomes are listed here; reply with one: T (active), F (inactive)

>  <compound>
NS(=O)(=O)c1ccc(-n2ncc3ccccc3c2=O)cc1

>  <qualitative.label>
F

$$$$

Would you mind telling me which call this test gave "N#C/C(=C\N(CCS(=O)(=O)c1ccc(Cl)cc1)Cc1cccs1)S(=O)(=O)c1ccc(Cl)cc1" ?
F

Tell me the recorded outcome of this test for "O=c1cc(C(F)(F)F)[nH]c2cc(Cl)cc(Cl)c12" .
T

Hi, do you know how "c1ccc([C@H]2CN3CCSC3=N2)cc1" came out in this test?
F

Which outcome was assigned to "Cc1onc(-c2c(Cl)cccc2Cl)c1C(=O)N[C@@H]1C(=O)N2[C@@H]1SC(C)(C)[C@@H]2C(=O)O" in this test?
F

For "COc1cc(-c2oc3cc(O)ccc3c(=O)c2O)cc(OC)c1OC" , what call appears in the results of this test?
F

Any idea what this test logged for "CCCc1nc2c(C)cc(-c3nc4ccccc4n3C)cc2n1Cc1ccc(-c2ccccc2C(=O)O)cc1" ?
F

Dear all, I need the recorded test outcome for Nc1ncnc2c1ncn2[C@@H]1O[C@H](C(=O)NC2CC2)[C@H](O)C1O (some centres undefined) , thank you.
F

Hi, do you know how OC(c1cc(C(F)(F)F)nc2c(C(F)(F)F)cccc12)C1CCCCN1 (centres undefined) came out in this test?
F
